Entry source: ChEMBL document CHEMBL3301472

# experiment: MMV: MTT Cytotoxicity Assay Day 7 pi of Assay #6 (compound washed out Day 1 pi), U87-CD4-CCR5 cells, % cell death @ 5mM compound
# Assay type: toxicity, cell-based
# protocol conditions: human, u87-cd4-ccr5, 5000 µM

| compound | % Cell Death |
| --- | --- |
| CCCCC(O)(c1ccc(Cl)cc1)C(CN1CCOCC1)c1ccc(Cl)cc1.Cl (stereo unspecified) | -10 |
| CCCc1c(CC)c(=N)c2ccccc2n1C | -10 |
| CCN1CCN(c2cc(C)c3cc(NC(=O)c4ccc(OC)c(OC)c4)ccc3n2)CC1 | 93 |
| Cc1sc2ncnc(Sc3nc4ccccc4[nH]3)c2c1C | -6 |
| CCC(O)c1ccc(Br)cc1NC(=O)c1cccc(Cl)c1 (stereo unspecified) | -24 |
| COc1cc2c3cc1Oc1c(OC)c(OC)cc4c1C(Cc1ccc(O)c(c1)Oc1ccc(cc1)CC3N(C)CC2)N(C)CC4.Cl (stereo unspecified) | 3 |
| OC(CNC1CCCCC1)Cn1c2ccccc2c2ccccc21 (stereo unspecified) | 13 |
| N=c1c2ccccc2nnn1-c1cccc(C(F)(F)F)c1 | 68 |
| Cc1ccc(-c2cc(C(=O)Nc3ccc(S(=O)(=O)N4CCCCC4)cc3)[nH]n2)c(O)c1 | 18 |
| COc1ccc(N2CCN(C(CNC(=O)C3CCCCC3)c3ccc4c(c3)OCO4)CC2)cc1 (stereo unspecified) | 25 |
| CN1CCN(c2nc(Nc3ccc(O)cc3)nc3ccccc23)CC1.Cl | -8 |
| Cc1ccc2cc3c(N)c4c(C)ccc(C)c4nc3nc2c1 | 46 |
| CC1CC(C)CN(C(=O)c2ccc(Cl)cc2Cl)C1 (stereo unspecified) | -14 |
| COc1ccc(C(=O)Nc2ccc(Cl)cc2C(=O)Nc2ccncc2)cc1 | -7 |
| CCN(CC)CCNc1ncnc2c1[nH]c1ccc(Cl)cc12 | 1 |
| CCOc1ccccc1CN1CCc2nc3cc(C(C)(C)C)nn3c(O)c2C1 | -7 |
| CC1CN(C(=O)c2sc3ccccc3c2Cl)CC(C)O1 (stereo unspecified) | 7 |
| CCOc1ccc(/C=C/c2nc(=O)c3ccccc3o2)cc1 | 27 |
| CN1CCN(c2ccc(Nc3c4ccccc4nc4ccccc34)cc2)CC1 | 22 |
| CCCCCn1c(=N)n(CC(O)COc2cccc(C)c2)c2ccccc21.Cl (stereo unspecified) | 65 |
| O=C1c2ccccc2-c2nnc(-c3ccc(Br)cc3)cc21 | 1 |
| O=c1nc(C=Cc2ccc(Br)cc2)oc2ccccc12 | -7 |
| COc1cc2cc(C(=O)Nc3ccccc3)c(N)nc2cc1OC | 0 |
| COc1ccccc1CNC(=O)CCn1c(=O)[nH]c2ccccc2c1=O | 7 |
| C[n+]1c2ccccc2nc2ccc(NCCO)cc21 | 29 |
| Fc1ccc2[nH]c3c(NCCCN4CCOCC4)ncnc3c2c1 | 34 |
